B1: EEHEE_rd3_1049 (parent)
chain: TTVKLGDIKVTFDNPEKAKKYAQKLAKIYQLTVHVHGDTIHVK

variants of: B1; assay: folding stability dG (cDNA display proteolysis); higher = more stable; details: PBS, room temperature
Reported folding stability dG values for the following variants.
Write the numeric value and append its unit.

{"columns": ["residue_change", "obs_value"],
 "data": [
  ["A18R", "0.343 kcal/mol"],
  ["Y29V", "0.558 kcal/mol"],
  ["K9V", "2.38 kcal/mol"],
  ["Q23E", "2.19 kcal/mol"],
  ["I8L", "2.19 kcal/mol"],
  ["L31H", "0.811 kcal/mol"]
]}

Entry K43F — recorded folding stability dG = 2.85 kcal/mol

Entry L5S — recorded folding stability dG = 0.683 kcal/mol

Entry I28L — recorded folding stability dG = 2.33 kcal/mol

Entry T39Q — recorded folding stability dG = 1.36 kcal/mol
